interaction score by entry:
# System name: T1, 4H949-bN
# T1 chain: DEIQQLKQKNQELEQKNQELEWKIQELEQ
# Method: two-hybrid library CCNG1;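 note: natural log of median RNA to DNA barcode read ratio; higher means stronger binding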

>  <Binder>
DKNQQLEQKIQELEQKIQELEWENQELKQ [4H3364-bN]

>  <interaction score>
-1.23

$$$$
>  <Binder>
DEIQQLKQKIQELEQENQELKWENQELKQ [4H796-bN]

>  <interaction score>
-0.619

$$$$
>  <Binder>
DEIQQLEQEIQELEQKNQELEWKNQELKQ [4H56-bN]

>  <interaction score>
-1.76

$$$$
>  <Binder>
DEIQQLEQENQELEQKIQELEWKIQELKQ [4H166-bN]

>  <interaction score>
-0.601

$$$$
>  <Binder>
DKIQQLEQENQELEQKNQELKWEIQELEQ [4H2233-bN]

>  <interaction score>
-1.36

$$$$
>  <Binder>
DKNAQLKQKNAELKQKIAELKWEIAQLEQ [4H4073-bA]

>  <interaction score>
-1.71

$$$$
>  <Binder>
DEIQQLEQKIQELKQENQELKWKIQELEQ [4H349-bN]

>  <interaction score>
-0.958

$$$$
